For each of the molecules below, state its pIC50.
# Test system: HiBiT-tagged MYB protein
# PROCEDURE SUMMARY: HiBiT protein abundance assay, MYB (K562 HiBiT knock-in cells)
# Format: cell-based, human
# TEST PARAMETERS: 24 hours
pIC50: −log10 of the molar value.

MOLECULE | pIC50
Cc1cn2cc(NC(=O)c3ccc(N4C[C@@H](C5CC5)N[C@@H](C)C4)c4nccnc34)cc(F)c2n1 [Compound 267] | 6.00 to 7.00
Cc1cn2cc(NC(=O)c3ccc(N4C[C@H](C)N[C@@H](C)C4)c4nccnc34)cc(F)c2n1 [Compound 313] | > 7.00
Cc1cc2c(N3CCNCC3)ccc(C(=O)Nc3cc(F)c4nc(C)cn4c3)c2nn1 [Compound 159] | > 7.00
Cc1cn2cc(NC(=O)c3ccc(N4CCN[C@@H](CO)C4)c4nccnc34)cc(F)c2n1 [Compound 361] | 6.00 to 7.00
CNC1CCN(c2ccc(C(=O)Nc3cc(F)c4nc(C)cn4c3)c3nccnc23)C1 (centres unmarked) [Compound 190] | 6.00 to 7.00

For every item below, please supply its pIC50.
1. CC(=O)c1cc(NC(=O)c2ccc(N3CCNCC3)c3ccnnc23)cn2cc(C)nc12 [Compound 163]
2. Cc1cn2cc(NC(=O)c3ccc(N4CCC(N5CCCC5)C4)c4ccnnc34)cc(F)c2n1 (centres unmarked) [Compound 133]
3. Cc1cn2cc(NC(=O)c3ccc(N4CCN[C@@H](C)C4)c4nccnc34)cc(F)c2n1 [Compound 187]

Output:
["5.00 to 6.00", "6.00 to 7.00", "> 7.00"]

* * *

# Tested on: MYB mRNA
# PROCEDURE SUMMARY: Splicing RT-qPCR assay, MYB canonical (CJ) and alternative (AJ) junction mRNA
# Type: cell-based
# TEST PARAMETERS: Homo sapiens, decrease in canonical junction mRNA, A673 or K562 cells, 24 hours
MEASURED PROPERTY: IC50

COMPOUND STRUCTURE STRING | IC50
Cc1cn2cc(NC(=O)c3ccc(N4C[C@@H](C)N(O)[C@@H](C)C4)c4nccnc34)cc(F)c2n1 | 100 to 1000 nM
CCN1CCC(c2ccc(C(=O)Nc3cc(F)c4nc(C)cn4c3)c3nnccc23)CC1 | 100 to 1000 nM

For every item below, please supply its IC50.
1. Cc1cnc2c(C(=O)Nc3cc(F)c4nc(C)cn4c3)ccc(N3CCC(N(C)C)CC3)c2n1
2. COCCOc1cc2c(N3CCNCC3)ccc(C(=O)Nc3cc(F)c4nc(C)cn4c3)c2nn1
3. Cc1cn2cc(NC(=O)c3c(F)cc(N4CCNCC4)c4ccnnc34)cc(F)c2n1

Output:
1. < 100 nM
2. 100 to 1000 nM
3. 1000 to 10000 nM

For every item below, please supply its IC50.
1. CCNC1CCN(c2ccc(C(=O)Nc3cc(F)c4nc(C)cn4c3)c3nccnc23)CC1
2. COc1nc(NC(=O)c2ccc(N3C[C@H](C)N[C@@H](C)C3)c3cccnc23)cn2cc(C)nc12
3. Cc1ccc2c(N3C[C@@H](C)N[C@@H](C)C3)ccc(C(=O)Nc3cc(F)c4nc(C)cn4c3)c2n1
4. COc1nc2c(F)cc(NC(=O)c3ccc(N4C[C@@H](C)N[C@@H](C)C4)c4nccnc34)cc2o1
5. Cc1cn2cc(NC(=O)c3ccc(N4C[C@@H](C)N[C@@H](C)C4)c4nccnc34)cc(Cl)c2n1
6. Cc1cn2cc(NC(=O)c3ccc(N4C[C@H]5CC[C@@H](C4)N5)c4ccnnc34)cc(F)c2n1

Output:
1: < 100 nM; 2: < 100 nM; 3: < 100 nM; 4: > 10000 nM; 5: < 100 nM; 6: 100 to 1000 nM

For every item below, please supply its IC50.
1. Cc1cn2cc(NC(=O)c3ccc(N4CCNC5(CC5)C4)c4ccnnc34)cc(F)c2n1
2. Cc1cn2cc(NC(=O)c3ccc(N4CCNCC4)c4cccnc34)cc(F)c2n1
3. C[C@@H]1CN(c2ccc(C(=O)Nc3cc(F)c4nc(Cl)cn4c3)c3nccnc23)C[C@H](C)N1
4. CC[C@H]1CN(c2ccc(C(=O)Nc3cc(F)c4nc(C)cn4c3)c3nnccc23)CCN1

Output:
1. 100 to 1000 nM
2. < 100 nM
3. 100 to 1000 nM
4. 100 to 1000 nM
